- method_summary: Pharmacokinetic assay in male SD rats (iv and oral)
- Assay type: in vivo
- test_context: rat, plasma, iv, 1 mg/kg
measured_quantity: AUC(0-t) (ng·h/mL)

>  <chemical_structure>
Cn1c(=O)c(C(=O)NCC(=O)O)c(O)c2ccc(Oc3ccccc3)cc21

>  <AUC(0-t) / ng·h/mL>
9340

$$$$
>  <chemical_structure>
O=C(O)CNC(=O)c1c(O)c2ccc(Oc3ccccc3)cc2n(CC2CC2)c1=O

>  <AUC(0-t) / ng·h/mL>
20200

$$$$
>  <chemical_structure>
Cn1c(=O)c(C(=O)NCC(=O)O)c(O)c2ccc(Oc3ccc(Cl)cc3)cc21

>  <AUC(0-t) / ng·h/mL>
13100

$$$$
>  <chemical_structure>
Cn1c(=O)c(C(=O)NCC(=O)O)c(O)c2ccc(Oc3ccc(F)cc3)cc21

>  <AUC(0-t) / ng·h/mL>
10200

$$$$
>  <chemical_structure>
Cn1c(=O)c(C(=O)NCC(=O)O)c(O)c2ccc(Oc3cc(F)ccc3F)cc21

>  <AUC(0-t) / ng·h/mL>
8260

$$$$

a = Cn1c(=O)c(C(=O)NCC(=O)O)c(O)c2ccc(Oc3cc(Cl)ccc3F)cc21
b = Cn1c(=O)c(C(=O)NCC(=O)O)c(O)c2ccc(Oc3ccc(F)cc3Cl)cc21
[Q] So which one has the bigger AUC(0-t) here, a or b ? Returns: label corresponding to the selected item.
[A] a
